Quick reference for IC50 among some binders
Target: T1, human IL13 R130Q (human, UniProt P35225 35-146, biotinylated (sites not given))
T1 construct: Peprotech; also called IL13R13Q; R111Q
T1 sequence (P35225 35-146 limits assumed, stated change not applied): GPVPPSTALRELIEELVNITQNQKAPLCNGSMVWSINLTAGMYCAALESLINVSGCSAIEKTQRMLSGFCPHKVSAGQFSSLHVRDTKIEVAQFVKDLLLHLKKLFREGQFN
Assay: IL13Ra2 binding inhibition; assay not re-described (Luminex of Example 2)
Answer format: numeric, pM implied, no suffix.

Q: Requested read-out: IC50. Entry: C01_6G9_V1_C06_44C12_V2 (designed binder, bispecific IL13/IL4 ankyrin repeat protein with (GGGGS)4 linker; also called bispecific AR protein) DLDKKLLEAARAGQDDEVRILMANGADVNARDSYGSTPLHLAAREGHLEIVEVLLKYGADVNAADFIGDTPLHLAAYRGHLEIVEVLLKYGADVNASDITGETPLHLAAQIGHLEIVEVLLKHGADVNAQDKFGKTAFDISIDNGNEDLAEILQKLNGGGGSGGGGSGGGGSGGGGSDLGKKLLEAASAGQDDEVHILMANGADVNALDDSGYTPLHLAAEDGHLEIVEVLLKHGADVNAADRLGDTPLHLAAFVGHLEIVEVLLKAGADVNAVDLAGVTPLHVAAFYGHLEIVEVLLKAGADVNAQDKFGKTAFDISIDNGNEDLAEILQKLN
Result: 23

Q: Query C01_6G9_V1_C06_53G6_V1 (designed binder, bispecific IL13/IL4 ankyrin repeat protein with (GGGGS)4 linker; also called bispecific AR protein) DLDKKLLEAARAGQDDEVRILMANGADVNARDSYGSTPLHLAAREGHLEIVEVLLKYGADVNAADFIGDTPLHLAAYRGHLEIVEVLLKYGADVNASDITGETPLHLAAQIGHLEIVEVLLKHGADVNAQDKFGKTAFDISIDNGNEDLAEILQKLNGGGGSGGGGSGGGGSGGGGSDLGKKLLEAARAGQDDEVRILMANGADVNATDDWGDTLLHLAATDGHLEIVEVLLKAGADVNANDAIGDTPLHLAALYGHLEIVEVLLKYGADVNATDLHGFTPLHLAAFWGHLEIVEVLLKHGADVNAQDKFGKTAFDISIDNGNEDLAEILQKLN next
Result: 99
